Experimental protocol: Human pharmacokinetic background values
Format: in vivo
Measurement parameters: blood, conversion of the KM of about 60 µM, read-out: blood concentration corresponding to KM
Measurement name: Km

State the recorded Km for this entry: CNS(=O)(=O)Cc1ccc2[nH]cc(CCN(C)C)c2c1 [Sumatriptan, sumatriptan]
~17.8 µg/mL

###

Test target: human OCT1*1 (wild-type) (Homo sapiens, UniProt O15245)
Experimental protocol: Concentration-dependent uptake (transport kinetics) in HEK293 cells overexpressing OCT1 wild-type
Measurement parameters: intrinsic clearance = ratio of Vmax and KM, OCT1 wild-type
Measurement name: Clint (±SEM) (µL/mg Protein/min)
Give bare numbers, in µL/mg Protein/min.

Below, each entry is followed by its recorded Clint (±SEM) result.
>  <Molecule>
Nc1ccn([C@H]2CC[C@@H](CO)O2)c(=O)n1

>  <Obs value>
2.57

$$$$
>  <Molecule>
C[C@](N)(Cc1ccc(O)c(O)c1)C(=O)O

>  <Obs value>
5.94

$$$$
>  <Molecule>
CNS(=O)(=O)Cc1ccc2[nH]cc(CCN(C)C)c2c1

>  <Obs value>
36.8

$$$$
>  <Molecule>
Nc1nc(=O)n([C@@H]2CS[C@H](CO)O2)cc1F

>  <Obs value>
6.15

$$$$
>  <Molecule>
N[C@@H](Cc1ccc(O)c(O)c1)C(=O)O

>  <Obs value>
13.8

$$$$
>  <Molecule>
C[n+]1ccc(-c2ccccc2)cc1

>  <Obs value>
20.8

$$$$
>  <Molecule>
CCCCC[C@H](O)/C=C/[C@H]1[C@H](O)CC(=O)[C@@H]1C/C=C\CCCC(=O)O [Prostaglandin E2, prostaglandin E2]

>  <Obs value>
3.50

$$$$
>  <Molecule>
Nc1nnc(-c2cccc(Cl)c2Cl)c(N)n1

>  <Obs value>
2.77

$$$$

// batch mode: one Clint (±SEM) value per listed entry
1. CCCCC[C@H](O)/C=C/[C@@H]1[C@@H](C/C=C\CCCC(=O)O)[C@@H](O)C[C@H]1O
2. C[C@H]1COc2c(N3CCN(C)CC3)c(F)cc3c(=O)c(C(=O)O)cn1c23

1: 1.40; 2: 3.77

###

Test target: variant human OCT1*2 (M420del) (Homo sapiens, UniProt O15245, DEL420-420)
Construct: expressed in transfected cells
Experimental protocol: Cellular uptake by HEK293 cells overexpressing OCT1*2
Format: cell-based
Measurement parameters: 1 µM substance
Measurement name: uptake by OCT1*2 in comparison to OCT1*1

>  <Structure as smiles>
Nc1nc(=O)n([C@@H]2CS[C@H](CO)O2)cc1F

>  <Obs value>
reduction in uptake

$$$$
>  <Structure as smiles>
COc1cc(Cc2cnc(N)nc2N)cc(OC)c1OC

>  <Obs value>
reduction in uptake

$$$$
>  <Structure as smiles>
Nc1ccn([C@H]2CC[C@@H](CO)O2)c(=O)n1

>  <Obs value>
reduction in uptake

$$$$
